Recorded viability at 24 h, 5 µM values for a group of molecules are listed next.
- measurement notes: Cytotoxicity against mouse HT22 cells assessed as cell viability at 5 uM after 24 hrs by MTT assay relative to control
- Assay type: cell-based, HT-22
- test context: read-out: Activity
Use % as the unit, but write only the number.

Worked cases, answers included:
{"query smiles": "S=C(Nc1ncccc1OCc1ccccc1Cl)Nc1cccc2ccccc12", "viability at 24 h, 5 µM, %": 89.3}
{"query smiles": "S=C(Nc1cccc(Cl)c1)Nc1nccnc1OCc1ccccc1Cl", "viability at 24 h, 5 µM, %": 114}
{"query smiles": "S=C(Nc1cccc(Cl)c1)Nc1ncccc1OCc1cccc(Cl)c1", "viability at 24 h, 5 µM, %": 98.3}
{"query smiles": "Cc1ccc(NC(=S)Nc2ncccc2OCc2cccc(Cl)c2)cc1", "viability at 24 h, 5 µM, %": 96.2}
{"query smiles": "S=C(NCc1ccccc1)Nc1nccnc1OCc1ccccc1Cl", "viability at 24 h, 5 µM, %": 105}
{"query smiles": "S=C(Nc1ncccc1OCc1cccc(Cl)c1)Nc1cccc2ccccc12", "viability at 24 h, 5 µM, %": 123}
{"query smiles": "Fc1cccc(COc2cccnc2NC(=S)Nc2cccc3ccccc23)c1", "viability at 24 h, 5 µM, %": 102}
{"query smiles": "Cc1ccc(NC(=S)Nc2ncccc2OCc2ccccc2Cl)cc1", "viability at 24 h, 5 µM, %": 93.5}

Exam item: What value of measured viability at 24 h, 5 µM is listed for "CC(C)NC(=S)Nc1ncccc1OCc1ccccc1Cl" ?
Marked response: 99.3

Exam item: What value of measured viability at 24 h, 5 µM is listed for "CC(C)(C)NC(=S)Nc1nccnc1OCc1cccc(F)c1" ?
Marked response: 101

Exam item: What value of measured viability at 24 h, 5 µM is listed for "Cc1ccc(NC(=S)Nc2nccnc2OCc2cccc(F)c2)cc1" ?
Marked response: 96.4

Exam item: What value of measured viability at 24 h, 5 µM is listed for "S=C(Nc1cccc(Cl)c1)Nc1ncccc1OCc1ccccc1Cl" ?
Marked response: 116
